- experimentalSystem: PRC2 complex (EZH2 Y641F/EED/SUZ12/RbAp48/AEBP2) (Homo sapiens (Human), UniProt Q15910, Y641F)
- Sequence (Q15910 whole entry Y641F): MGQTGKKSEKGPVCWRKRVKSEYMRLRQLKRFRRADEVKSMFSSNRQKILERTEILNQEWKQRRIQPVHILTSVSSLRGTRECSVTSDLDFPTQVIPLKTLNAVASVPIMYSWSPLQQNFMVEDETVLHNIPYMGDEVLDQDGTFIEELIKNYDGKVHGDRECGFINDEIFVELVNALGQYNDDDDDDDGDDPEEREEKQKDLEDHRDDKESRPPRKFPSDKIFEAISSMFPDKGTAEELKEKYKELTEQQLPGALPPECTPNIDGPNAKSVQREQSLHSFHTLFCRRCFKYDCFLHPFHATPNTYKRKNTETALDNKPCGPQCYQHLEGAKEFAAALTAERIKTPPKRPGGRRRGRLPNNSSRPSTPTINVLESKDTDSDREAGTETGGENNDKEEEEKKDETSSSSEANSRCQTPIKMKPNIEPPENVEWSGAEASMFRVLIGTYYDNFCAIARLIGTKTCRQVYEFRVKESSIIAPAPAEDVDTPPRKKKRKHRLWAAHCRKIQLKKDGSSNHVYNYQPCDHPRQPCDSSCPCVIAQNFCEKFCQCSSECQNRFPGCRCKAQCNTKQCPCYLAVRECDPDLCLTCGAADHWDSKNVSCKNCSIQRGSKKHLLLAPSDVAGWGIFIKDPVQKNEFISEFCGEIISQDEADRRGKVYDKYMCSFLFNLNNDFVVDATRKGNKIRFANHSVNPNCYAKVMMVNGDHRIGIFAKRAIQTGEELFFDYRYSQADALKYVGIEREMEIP
- Sequence (O75530 whole entry partner): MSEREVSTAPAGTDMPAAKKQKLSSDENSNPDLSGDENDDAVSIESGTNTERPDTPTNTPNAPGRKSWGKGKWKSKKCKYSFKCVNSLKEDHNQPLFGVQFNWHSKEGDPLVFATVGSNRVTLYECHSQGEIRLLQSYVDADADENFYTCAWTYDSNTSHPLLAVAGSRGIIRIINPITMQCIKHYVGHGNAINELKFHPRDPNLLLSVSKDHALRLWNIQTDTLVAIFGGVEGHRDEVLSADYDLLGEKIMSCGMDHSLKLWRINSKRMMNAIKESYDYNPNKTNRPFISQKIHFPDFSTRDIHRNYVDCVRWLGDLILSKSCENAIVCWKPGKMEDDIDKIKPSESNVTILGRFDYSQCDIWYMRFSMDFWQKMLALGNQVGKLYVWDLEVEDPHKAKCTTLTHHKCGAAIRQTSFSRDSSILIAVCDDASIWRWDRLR
- Sequence (Q15022 whole entry partner): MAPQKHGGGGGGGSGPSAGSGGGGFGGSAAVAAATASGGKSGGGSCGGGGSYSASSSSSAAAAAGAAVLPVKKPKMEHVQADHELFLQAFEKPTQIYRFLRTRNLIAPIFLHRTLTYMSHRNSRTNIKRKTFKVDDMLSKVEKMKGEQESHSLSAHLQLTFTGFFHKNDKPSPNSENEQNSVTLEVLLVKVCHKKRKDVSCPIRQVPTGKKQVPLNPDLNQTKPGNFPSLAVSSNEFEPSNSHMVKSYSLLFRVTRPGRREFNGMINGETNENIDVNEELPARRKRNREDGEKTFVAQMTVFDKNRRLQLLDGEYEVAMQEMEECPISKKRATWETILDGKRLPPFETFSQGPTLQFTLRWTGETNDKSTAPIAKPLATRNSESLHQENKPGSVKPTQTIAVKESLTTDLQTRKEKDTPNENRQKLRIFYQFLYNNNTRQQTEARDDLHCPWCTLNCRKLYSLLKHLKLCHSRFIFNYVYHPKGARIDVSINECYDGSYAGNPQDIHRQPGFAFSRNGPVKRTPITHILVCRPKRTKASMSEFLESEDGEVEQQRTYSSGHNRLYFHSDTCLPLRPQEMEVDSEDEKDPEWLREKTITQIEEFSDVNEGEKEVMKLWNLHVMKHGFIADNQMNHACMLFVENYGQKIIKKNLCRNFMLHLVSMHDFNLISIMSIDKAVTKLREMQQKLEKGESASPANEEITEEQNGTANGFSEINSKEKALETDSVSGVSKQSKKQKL
- Sequence (Q09028 whole entry partner): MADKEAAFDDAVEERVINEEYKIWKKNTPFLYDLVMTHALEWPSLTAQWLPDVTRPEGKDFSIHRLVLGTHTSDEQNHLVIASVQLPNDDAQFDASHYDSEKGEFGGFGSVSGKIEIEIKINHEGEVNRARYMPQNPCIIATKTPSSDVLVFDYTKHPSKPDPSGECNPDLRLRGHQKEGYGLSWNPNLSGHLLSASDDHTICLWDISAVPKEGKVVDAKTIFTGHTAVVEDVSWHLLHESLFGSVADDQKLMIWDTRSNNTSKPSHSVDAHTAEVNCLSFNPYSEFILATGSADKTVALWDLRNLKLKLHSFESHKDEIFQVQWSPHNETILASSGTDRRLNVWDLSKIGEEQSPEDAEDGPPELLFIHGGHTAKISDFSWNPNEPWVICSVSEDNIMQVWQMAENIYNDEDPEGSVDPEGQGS
- Sequence (Q6ZN18 whole entry partner): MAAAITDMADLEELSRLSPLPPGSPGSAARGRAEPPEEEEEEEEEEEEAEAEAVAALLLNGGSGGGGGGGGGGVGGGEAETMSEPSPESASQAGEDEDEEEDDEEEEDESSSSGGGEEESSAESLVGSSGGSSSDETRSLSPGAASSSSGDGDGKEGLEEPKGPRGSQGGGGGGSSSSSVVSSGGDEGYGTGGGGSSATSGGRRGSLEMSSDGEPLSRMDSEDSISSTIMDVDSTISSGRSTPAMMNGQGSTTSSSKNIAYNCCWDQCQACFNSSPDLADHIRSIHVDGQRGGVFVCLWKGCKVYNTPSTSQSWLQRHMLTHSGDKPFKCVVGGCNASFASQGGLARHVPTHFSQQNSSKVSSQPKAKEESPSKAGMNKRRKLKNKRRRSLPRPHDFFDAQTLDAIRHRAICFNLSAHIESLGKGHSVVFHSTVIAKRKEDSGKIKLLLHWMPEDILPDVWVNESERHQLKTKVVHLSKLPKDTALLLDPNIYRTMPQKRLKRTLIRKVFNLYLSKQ
- protocolNotes: Activity of a compound to PRC2 complex (EZH2 Y641F), HTRF
- testConditions: read-out: IC50 (EZH2_Y641F); EZH2 Y641F PRC2 complex, HTRF; class symbols
pIC50: −log10 of the molar value.
reportedProperty: pIC50

Report pIC50, nothing else, for this molecule: COc1cc(C)[nH]c(=O)c1CNC(=O)c1cc2c(-c3ccn[nH]3)ccn2c(N(C)C2CCN(CC(F)(F)F)CC2)c1C > 7.00

Report pIC50, nothing else, for this molecule: Cc1cc(C)c(CNC(=O)c2cc3cccn3c(C(C)OCc3ccccc3F)c2C)c(=O)[nH]1 (stereo not shown) 6.00 to 7.00

Report pIC50, nothing else, for this molecule: Cc1cc(C)c(CNC(=O)c2cc3c(Br)ccn3c(C(C)N3CCOCC3)c2C)c(=O)[nH]1 (stereo not shown) [Example 53] > 7.00

Report pIC50, nothing else, for this molecule: COc1cc(C)[nH]c(=O)c1CNC(=O)c1cc2c(-c3ccnc(Cl)c3)ccn2c([C@H](C)N2CCN(CC(F)(F)F)CC2)c1C (single isomer, unassigned) [Compound 168] 6.00 to 7.00

Report pIC50, nothing else, for this molecule: Cc1cc(C)c(CNC(=O)c2cc3cc(Br)cn3c(C(C)N3CCC(F)(F)CC3)c2C)c(=O)[nH]1 (stereo not shown) [Example 122] 6.00 to 7.00

Report pIC50, nothing else, for this molecule: C=C(C)COC(C)c1c(C)c(C(=O)NCc2c(C)cc(C)[nH]c2=O)cc2cccn12 (stereo not shown) 6.00 to 7.00

Report pIC50, nothing else, for this molecule: Cc1cc(C)c(CNC(=O)c2cc3cccn3c(C(C)OCc3ccsc3)c2C)c(=O)[nH]1 (stereo not shown) 6.00 to 7.00

====

- experimentalSystem: PRC2 complex (EZH2 Y641F/EED/SUZ12/RbAp48/AEBP2) (Homo sapiens (Human), UniProt Q15910, Y641F)
- protocolNotes: Activity of a compound to PRC2 complex (EZH2 Y641F), HTRF
- testConditions: read-out: IC50 (EZH2_Y641F); EZH2 Y641F PRC2 complex, HTRF; class symbols
reportedProperty: IC50

Report IC50, nothing else, for this compound: COc1cc(C)[nH]c(=O)c1CNC(=O)c1cc2c(-c3cccnc3N(C)C)ccn2c(C(C)N2CCN(CC(F)(F)F)CC2)c1C (centres unmarked) < 100 nM

Report IC50, nothing else, for this compound: COc1cc(C)[nH]c(=O)c1CNC(=O)c1cc2c(-c3ccc(C)nc3C)ccn2c([C@H](C)N2CCN(CC(F)(F)F)CC2)c1C (single isomer, unassigned) [Compound 177] < 100 nM

Report IC50, nothing else, for this compound: CNc1ccc(-c2ccn3c(C(C)N4CCN(CC(F)(F)F)CC4)c(C)c(C(=O)NCc4c(OC)cc(C)[nH]c4=O)cc23)cn1 (centres unmarked) < 100 nM

Report IC50, nothing else, for this compound: Cc1cc(C)c(CNC(=O)c2cc3cc(-c4ccc(N5CCN(C)CC5)nc4)cn3c(C(C)N3CCOCC3)c2C)c(=O)[nH]1 (centres unmarked) < 100 nM

Report IC50, nothing else, for this compound: Cc1cc(C)c(CNC(=O)c2cc3cc(-c4cncn4C)cn3c(C(C)N3CCN(CC(F)(F)F)CC3)c2C)c(=O)[nH]1 (centres unmarked) < 100 nM

Report IC50, nothing else, for this compound: Cc1cc(C)c(CNC(=O)c2cc3c(-c4ccc(N)nc4)ccn3c([C@H](C)N3CCN(CC(F)(F)F)CC3)c2C)c(=O)[nH]1 (single isomer, unassigned) [Compound 160] < 100 nM

Report IC50, nothing else, for this compound: COc1cc(C)[nH]c(=O)c1CNC(=O)c1cc2c(-c3c(C)noc3C)ccn2c(C(C)N2CCN(CC(F)(F)F)CC2)c1C (centres unmarked) < 100 nM

Report IC50, nothing else, for this compound: Cc1cc(C)c(CNC(=O)c2cc3cc(-c4ccn[nH]4)cn3c(C(C)N3CCOCC3)c2C)c(=O)[nH]1 (centres unmarked) < 100 nM

Report IC50, nothing else, for this compound: CCN1CCN(C(C)c2c(C)c(C(=O)NCc3c(C)cc(C)[nH]c3=O)cc3cc(Br)cn23)CC1 (centres unmarked) [Example 99] 100 to 1000 nM

Report IC50, nothing else, for this compound: COc1cccc(-c2cc3cc(C(=O)NCc4c(C)cc(C)[nH]c4=O)c(C)c(C(C)N4CCOCC4)n3c2)c1 (centres unmarked) [Example 95] < 100 nM

Report IC50, nothing else, for this compound: COc1cccc(-c2ccn3c(C(C)N4CCOCC4)c(C)c(C(=O)NCc4c(C)cc(C)[nH]c4=O)cc23)c1 (centres unmarked) < 100 nM

Report IC50, nothing else, for this compound: Cc1cc(C)c(CNC(=O)c2cc3cc(-c4cncn4C)cn3c(C(C)N3CCC(N(C)C)CC3)c2C)c(=O)[nH]1 (centres unmarked) < 100 nM

Report IC50, nothing else, for this compound: Cc1cc(C)c(CNC(=O)c2cc3cccn3c(C(C)OCc3nccs3)c2C)c(=O)[nH]1 (centres unmarked) < 100 nM

Report IC50, nothing else, for this compound: Cc1cc(C)c(CNC(=O)c2cc3cc(-c4nccs4)cn3c(C(C)N3CCOCC3)c2C)c(=O)[nH]1 (centres unmarked) < 100 nM

Report IC50, nothing else, for this compound: COc1cc(C)[nH]c(=O)c1CNC(=O)c1cc2cc(-c3nccn3C)cn2c(C(C)N2CCC(N(C)C)CC2)c1C (centres unmarked) [Example 107] < 100 nM

Report IC50, nothing else, for this compound: CCN(c1c(C)c(C(=O)NCc2c(C)cc(C)[nH]c2=O)cc2cc(-c3nccs3)cn12)C1CCOCC1 100 to 1000 nM

Report IC50, nothing else, for this compound: Cc1cc(C)c(CNC(=O)c2cc3cc(-c4cncn4C)cn3c(C(C)N3CCOCC3)c2C)c(=O)[nH]1 (centres unmarked) < 100 nM

Report IC50, nothing else, for this compound: COc1cc(C)[nH]c(=O)c1CNC(=O)c1cc2cc(-c3ccnn3C)cn2c(C(C)N2CCN(CC(F)(F)F)CC2)c1C (centres unmarked) < 100 nM

Report IC50, nothing else, for this compound: CCN1CCN(C(C)c2c(C)c(C(=O)NCc3c(C)cc(C)[nH]c3=O)cc3cc(Br)cn23)CC1 (centres unmarked) [Example 98] 100 to 1000 nM

Report IC50, nothing else, for this compound: Cc1cc(C)c(CNC(=O)c2cc3cc(-c4ccn(C)n4)cn3c(C(C)N3CCC(N(C)C)CC3)c2C)c(=O)[nH]1 (centres unmarked) < 100 nM

Report IC50, nothing else, for this compound: Cc1cc(C)c(CNC(=O)c2cc3cc(Cl)cn3c(C(C)N3CCOCC3)c2C)c(=O)[nH]1 (centres unmarked) < 100 nM

Report IC50, nothing else, for this compound: Cc1cc(C)c(CNC(=O)c2cc3c(-c4cnn(C5CCOCC5)c4)ccn3c(C(C)N3CCN(CC(F)(F)F)CC3)c2C)c(=O)[nH]1 (centres unmarked) < 100 nM

Report IC50, nothing else, for this compound: Cc1cc(C)c(CNC(=O)c2cc3cc(-c4cn(C)cn4)cn3c(C(C)N3CCOCC3)c2C)c(=O)[nH]1 (centres unmarked) < 100 nM

Report IC50, nothing else, for this compound: Cc1cc(C)c(CNC(=O)c2cc3cccn3c(C(C)OC3CCCCC3)c2C)c(=O)[nH]1 (centres unmarked) 100 to 1000 nM

Report IC50, nothing else, for this compound: COc1cc(C)[nH]c(=O)c1CNC(=O)c1cc2c(-c3ccc(C)nc3)ccn2c(C(C)N2CCN(CC(F)(F)F)CC2)c1C (centres unmarked) < 100 nM

Report IC50, nothing else, for this compound: CNc1cc(-c2ccn3c([C@H](C)N4CCN(CC(F)(F)F)CC4)c(C)c(C(=O)NCc4c(OC)cc(C)[nH]c4=O)cc23)ccn1 (single isomer, unassigned) [Compound 181] < 100 nM
